EXPERIMENTAL TARGET: DN-III quality control recombinant protein (produced by Fapon Biotech InC.) (dengue virus)
EXPERIMENTAL PROTOCOL: BLI, AMC sensor, antibody captured
EXPERIMENTAL ENDPOINT: log10 kon (log10 of the value in M⁻¹ s⁻¹)
Kindly note that the scale is log10 and the underlying kon is in M⁻¹ s⁻¹.

Any idea what log10 kon was measured for Mutation 1-22 (antibody, V domains shown) VH: EVQLQQSGTELVRPGALVKLSCKASGFNIKDYYIHWVKQRPRQGLEWIGWIDPENGKTLYDPKFQDKASITSDTSTNTAYLQLRSLTSEDTAVYYCVSAYYRFVYWGQGTLVTVSA VL: QIVLTQSPAIMSAFPGERVTMTCSASTSVRYMYWHQQKPGSSPRLLIYDTSNLASGVPVRFSGSGSGTSYSLTISRDEAMDAATYYCQQWSSFPRTFGGGTKLEIKR ?
4.68

Query: log10 kon; subject: Mutation 1-3 (antibody, V domains shown) VH: EVQLQQSGTELVRPGALVKLSCKASGFNIKDYYVHWVKQRPRQGLEWIGWIDPENGKTIYDPKFQDKASITSDTSTNTAYLQLRSLTSEDTAVYYCVSAYVRFVYWGQGTLVTVSA VL: QIVLTQSPAIMSAFPGERVTMTCSASTSVRYMYWHQQKPGSSPRLLIYDTSNIASGVPVRFSGSGSGTSYSLTISRDEAMDAATYYCQQWSSTPRTFGGGTKLEIKR
4.68

Bench note: what log10 kon did Mutation 1-31 (antibody, V domains shown) VH: EVQLQQSGTELVRPGALVKLSCKASGFNIKDYYIHWVKQRPRQGLEWIGWIDPENGKTLYDPKFQDKASITSDTSTNTAYLQLRSLTSEDTAVYYCVTAYVRFVYWGQGTLVTVSA VL: QIVLTQSPAIMSAFPGERVTMTCSASTSVRYMYWHQQKPGSSPRLLIYDTSNLASGVPVRFSGSGSGTSYSLTISRDEAMDAATYYCQQWSSFPRTFGGGTKLEIKR show?
5.54

What value of measured log10 kon is listed for Mutation 1-1 (antibody, V domains shown) VH: EVQLQQSGTELVRPGALVKLSCKASGFNIKDYYIHWVKQRPRQGLEWIGWIDPENGKTIYDPKFQDKASITSDTSTNTAYLQLRSLTSEDTAVYYCVTAYFRFVYWGQGTLVTVSA VL: QIVLTQSPAIMSAFPGERVTMTCSASTSVRYMYWHQQKPGSSPRLLIYDTSNLASGVPVRFSGSGSGTSYSLTISRDEAMDAATYYCQQWSSYPRTFGGGTKLEIKR ?
4.52

Please give the measured log10 kon for this binder: WT 1-20 (antibody, V domains shown) VH: EVQLQQSGTELVRPGALVKLSCKASGFNIKEYYIHWVKQRPRQGLEWIGWIDPDNGKTLYDPKVQDKASITSDTSTNTAYLQLRSLTSEDTAVYYCVSAYFRFVYWGQGTLVTVSA VL: QIVLTQSPAIMSAFPGERVTMTCSASSSVKYMYWHQQKPGSSPRLLIYETSNIASGFPVRFSGSGSGTSYSLTISRDEAMDAATYYCQQQSSYPRTFGGGTKLEIKR
3.49

Which log10 kon value is on record for Mutation 1-29 (antibody, V domains shown) VH: EVQLQQSGTELVRPGALVKLSCKASGFNIKDYYLHWVKQRPRQGLEWIGWIDPENGKTIYDPKFQDKASITSDTSTNTAYLQLRSLTSEDTAVYYCVSAYYRFVYWGQGTLVTVSA VL: QIVLTQSPAIMSAFPGERVTMTCSASTSVRYMYWHQQKPGSSPRLLIYDTSNVASGVPVRFSGSGSGTSYSLTISRDEAMDAATYYCQQWSSYPRTFGGGTKLEIKR ?
4.55

Query (binder): Mutation 1-33 (antibody, V domains shown) VH: EVQLQQSGTELVRPGALVKLSCKASGFNIKDYYVHWVKQRPRQGLEWIGWIDPENGKTLYDPKFQDKASITSDTSTNTAYLQLRSLTSEDTAVYYCVTAYYRFVYWGQGTLVTVSA VL: QIVLTQSPAIMSAFPGERVTMTCSASTSVRYMYWHQQKPGSSPRLLIYDTSNIASGVPVRFSGSGSGTSYSLTISRDEAMDAATYYCQQWSSYPRTFGGGTKLEIKR ; field requested: log10 kon
4.68

Looking for the measured log10 kon of Mutation 1-41 (antibody, V domains shown) VH: EVQLQQSGTELVRPGALVKLSCKASGFNIKDYYLHWVKQRPRQGLEWIGWIDPENGKTIYDPKFQDKASITSDTSTNTAYLQLRSLTSEDTAVYYCVSAYYRFVYWGQGTLVTVSA VL: QIVLTQSPAIMSAFPGERVTMTCSASTSVRYMYWHQQKPGSSPRLLIYDTSNIASGVPVRFSGSGSGTSYSLTISRDEAMDAATYYCQQWSSYPRTFGGGTKLEIKR , can you help?
4.64

Look at this binder and give its reported log10 kon. Mutation 1-2 (antibody, V domains shown) VH: EVQLQQSGTELVRPGALVKLSCKASGFNIKDYYLHWVKQRPRQGLEWIGWIDPENGKTLYDPKFQDKASITSDTSTNTAYLQLRSLTSEDTAVYYCVTAYYRFVYWGQGTLVTVSA VL: QIVLTQSPAIMSAFPGERVTMTCSASSSVRYMYWHQQKPGSSPRLLIYDTSNVASGVPVRFSGSGSGTSYSLTISRDEAMDAATYYCQQWSSFPRTFGGGTKLEIKR
5.68

What does the data say about its log10 kon? Entry: Mutation 1-13 (antibody, V domains shown) VH: EVQLQQSGTELVRPGALVKLSCKASGFNIKDYYIHWVKQRPRQGLEWIGWIDPENGKTIYDPKFQDKASITSDTSTNTAYLQLRSLTSEDTAVYYCVTAYYRFVYWGQGTLVTVSA VL: QIVLTQSPAIMSAFPGERVTMTCSASSSVRYMYWHQQKPGSSPRLLIYDTSNLASGVPVRFSGSGSGTSYSLTISRDEAMDAATYYCQQWSSYPRTFGGGTKLEIKR
4.63
